# assay.system: human MC3R (human, UniProt P41968 1-323)
# Sequence (P41968 whole entry): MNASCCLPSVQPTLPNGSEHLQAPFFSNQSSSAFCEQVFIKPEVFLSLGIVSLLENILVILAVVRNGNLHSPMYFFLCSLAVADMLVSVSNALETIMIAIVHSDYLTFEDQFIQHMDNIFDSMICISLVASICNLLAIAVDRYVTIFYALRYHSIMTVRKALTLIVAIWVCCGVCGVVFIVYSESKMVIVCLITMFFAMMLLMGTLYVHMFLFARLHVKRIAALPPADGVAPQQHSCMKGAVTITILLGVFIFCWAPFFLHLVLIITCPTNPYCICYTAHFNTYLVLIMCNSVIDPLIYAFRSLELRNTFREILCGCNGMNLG
# assay.remarks: cell-based or functional assay
Non-standard residues stand in square brackets, D forms with d. Phe(4-I) = N[C@@H](Cc1ccc(I)cc1)C(=O)O; Nle = CCCC[C@H](N)C(=O)O; Aib = CC(C)(N)C(=O)O
Record form. Attribute: MC3R cAMP (EC50). Fill in for each entry.
Record the value in nM, omitting the unit from your answer.

Kindly indicate its recorded MC3R cAMP (EC50). Item: Ac-YVE[Aib]H[Phe(4-I)]R[dW]DRFG-OH (SMILES CC(=O)N[C@@H](Cc1ccc(O)cc1)C(=O)N[C@H](C(=O)N[C@@H](CCC(=O)O)C(=O)NC(C)(C)C(=O)N[C@@H](Cc1c[nH]cn1)C(=O)N[C@@H](Cc1ccc(I)cc1)C(=O)N[C@@H](CCCNC(=N)N)C(=O)N[C@H](Cc1c[nH]c2ccccc12)C(=O)N[C@@H](CC(=O)O)C(=O)N[C@@H](CCCNC(=N)N)C(=O)N[C@@H](Cc1ccccc1)C(=O)NCC(=O)O)C(C)C) [CTX-1195] 184

Kindly indicate its recorded MC3R cAMP (EC50). Item: H-YV[Nle]AHFR[dW]D-NH2 (SMILES CCCC[C@H](NC(=O)[C@@H](NC(=O)[C@@H](N)Cc1ccc(O)cc1)C(C)C)C(=O)N[C@@H](C)C(=O)N[C@@H](Cc1c[nH]cn1)C(=O)N[C@@H](Cc1ccccc1)C(=O)N[C@@H](CCCNC(=N)N)C(=O)N[C@H](Cc1c[nH]c2ccccc12)C(=O)N[C@@H](CC(=O)O)C(N)=O) [CTX-1129] 1.2

Kindly indicate its recorded MC3R cAMP (EC50). Item: Ac-[Nle][dA]H[Phe(4-I)]R[dW]DR-NH2 (SMILES CCCC[C@H](NC(C)=O)C(=O)N[C@H](C)C(=O)N[C@@H](Cc1c[nH]cn1)C(=O)N[C@@H](Cc1ccc(I)cc1)C(=O)N[C@@H](CCCNC(=N)N)C(=O)N[C@H](Cc1c[nH]c2ccccc12)C(=O)N[C@@H](CC(=O)O)C(=O)N[C@@H](CCCNC(=N)N)C(N)=O) [CTX-1170] 26

Recorded values, source patent US20240287154A1.
